Items are presented alongside their recorded Kd.
# TESTED_TARGET: T1, human SIRPβ-Fc (human)
# T1 construct: a signal peptide may be part of the entry
# METHOD_SUMMARY: BLI Octet, antigen-Fc on biosensor;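 also: antigen captured on the biosensor tip and then immersed in solutions of the test antibodies, which act as the analyte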
ATTRIBUTE_MEASURED: Kd (nM)

# BINDER, DISPLAY_UNIT, REPORTED_MEASUREMENT
data = [
    ("SIRPAB-3 (antibody, human IgG1, kappa, V domains shown) VH: QVQLQESGPGLVKPSQTLSLTCTVSGGSISSGGWYWQWIRQHPGKGLEWIGTIYYSGSTFYNPSLKSRVTISVDTSKNQFSLKLSSVTAADTAVYYCAREGYHSGMDVWGQGTTVTVSS VL: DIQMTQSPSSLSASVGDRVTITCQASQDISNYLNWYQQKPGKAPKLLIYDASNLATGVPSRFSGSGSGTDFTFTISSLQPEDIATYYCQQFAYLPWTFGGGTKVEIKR", "nM", 0.22),
    ("SIRPAB-2 (antibody, human IgG1, kappa, V domains shown) VH: QVQLQESGPGLVKPSQTLSLTCTVSGGSISSGGDYWAWIRQHPGKGLEWIGYIYPSGFTYYNPSLKSRVTISVDTSKNQFSLKLSSVTAADTAVYYCAREGYHSGMDVWGQGTTVTVSS VL: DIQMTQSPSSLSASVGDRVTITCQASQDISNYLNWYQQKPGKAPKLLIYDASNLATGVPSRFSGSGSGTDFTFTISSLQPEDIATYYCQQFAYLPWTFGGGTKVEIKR", "nM", 0.89),
    ("SIRPAB-10 (antibody, human IgG1, kappa, V domains shown) VH: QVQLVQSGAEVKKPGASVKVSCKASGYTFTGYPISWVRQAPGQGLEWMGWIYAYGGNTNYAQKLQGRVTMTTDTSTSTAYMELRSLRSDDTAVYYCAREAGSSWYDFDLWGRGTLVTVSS VL: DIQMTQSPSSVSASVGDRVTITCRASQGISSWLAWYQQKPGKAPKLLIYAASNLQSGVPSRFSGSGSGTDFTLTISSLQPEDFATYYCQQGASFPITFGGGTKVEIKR", "nM", 0.34),
    ("SIRPAB-13 (antibody, human IgG1, kappa, V domains shown) VH: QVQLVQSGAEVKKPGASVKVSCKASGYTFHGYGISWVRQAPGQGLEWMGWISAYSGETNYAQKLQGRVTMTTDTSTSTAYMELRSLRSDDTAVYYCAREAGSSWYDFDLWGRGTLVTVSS VL: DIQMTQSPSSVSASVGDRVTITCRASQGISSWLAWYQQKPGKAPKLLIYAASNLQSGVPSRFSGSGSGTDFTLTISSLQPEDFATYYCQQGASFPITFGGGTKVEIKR", "nM", 4.52),
]

Origin of the recorded values: patent US20200102387A1
